Collected hERG current change (%, negative = inhibition) at 10uM values appear next to each entry.
Target: human ether-à-go-go-related gene (hERG) potassium channel (human, UniProt Q12809);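 note: peak tail current of the secondary pulse compared with the same well before compound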
Sequence (Q12809 whole entry, looked up): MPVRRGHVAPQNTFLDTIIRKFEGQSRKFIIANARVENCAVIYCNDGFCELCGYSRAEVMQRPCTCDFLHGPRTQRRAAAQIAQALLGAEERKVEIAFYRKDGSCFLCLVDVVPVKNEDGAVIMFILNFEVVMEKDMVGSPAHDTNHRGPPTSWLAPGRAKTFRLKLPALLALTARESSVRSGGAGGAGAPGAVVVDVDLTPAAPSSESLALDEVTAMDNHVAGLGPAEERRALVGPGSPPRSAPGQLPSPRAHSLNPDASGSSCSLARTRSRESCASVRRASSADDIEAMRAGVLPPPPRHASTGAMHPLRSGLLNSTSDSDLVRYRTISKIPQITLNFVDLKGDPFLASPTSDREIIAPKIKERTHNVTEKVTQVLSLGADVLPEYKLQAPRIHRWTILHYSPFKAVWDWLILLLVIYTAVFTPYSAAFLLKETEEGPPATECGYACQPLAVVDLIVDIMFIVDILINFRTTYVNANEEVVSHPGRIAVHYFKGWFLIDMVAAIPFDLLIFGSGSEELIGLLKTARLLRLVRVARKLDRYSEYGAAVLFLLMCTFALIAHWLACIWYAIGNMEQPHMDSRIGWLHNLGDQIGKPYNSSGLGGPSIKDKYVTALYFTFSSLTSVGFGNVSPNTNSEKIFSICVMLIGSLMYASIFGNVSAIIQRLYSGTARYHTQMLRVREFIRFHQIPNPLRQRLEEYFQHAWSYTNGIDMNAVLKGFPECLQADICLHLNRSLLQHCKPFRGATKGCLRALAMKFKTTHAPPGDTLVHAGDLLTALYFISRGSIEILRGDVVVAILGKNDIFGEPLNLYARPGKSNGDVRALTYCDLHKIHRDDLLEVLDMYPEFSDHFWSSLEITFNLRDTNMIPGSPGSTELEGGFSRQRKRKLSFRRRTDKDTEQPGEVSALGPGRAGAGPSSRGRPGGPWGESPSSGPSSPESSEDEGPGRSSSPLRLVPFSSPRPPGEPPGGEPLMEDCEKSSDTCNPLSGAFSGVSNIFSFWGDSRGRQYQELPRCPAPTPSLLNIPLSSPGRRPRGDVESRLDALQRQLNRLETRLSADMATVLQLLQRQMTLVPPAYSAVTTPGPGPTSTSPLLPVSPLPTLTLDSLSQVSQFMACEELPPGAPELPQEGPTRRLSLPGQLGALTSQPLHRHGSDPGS
Experiment: primary screen, population patch clamp on CHO cells stably expressing hERG; higher = less effect of the substance
Description: Briefly, Chinese hamster ovary (CHO) cells stably expressing the hERG channel were dislodged from tissue culture flasks and dispensed into PPC plates. […] During the recording, background leak currents were estimated by a 100 ms step to -80 mV from an initial holding potential of -70 mV and subtracted from the subsequent current measurement. The campaign was conducted in two phases using slight differences in recording protocol. […]
Screen size: about 310,000 compounds; about 14,000 (4.5%) showed an effect of 50% or more. The effect is printed as a negative number. The sample holds strong results, similar compounds and a random draw of the others, so the mix is not that of the screen.
endpointName: hERG current change (%, negative = inhibition) at 10uM (%)

compound | reportedResult
O=C(COc1ccc(Cl)cc1Cl)N/N=C1\CCCc2ccccc21 | 2.52
CCC(C)(C)NC(=O)C(c1ccc(F)cc1)N(Cc1ccc(OC)cc1)C(=O)c1cnccn1 (stereo not drawn) | -11.8
COc1ccc(NC(=O)Nc2nnc(-c3ccccc3SCc3ccccc3)s2)cc1 | 13.6
O=C(CN1CCC(C(=O)c2cccc(Cl)c2)CC1)Nc1ccc(C(=O)O)cc1 | 16
O=C(Nc1ccc(Cl)cc1Cl)c1csc(-c2cccnc2)n1 | -1.42
O=C(NCCC1=CCCCC1)c1ccc([N+](=O)[O-])cc1 | -14.9
NC(=O)c1nsc(C(=O)N(Cc2cccnc2)C(C(=O)NCc2ccc(F)cc2)c2ccc(F)cc2)c1N (stereo not drawn) | 0.71
COc1ccc(CN(C(=O)c2cnccn2)C(C(=O)Nc2ccc(F)cc2)c2ccccc2)cc1 (stereo not drawn) | -68.2
CCCCNS(=O)(=O)c1ccc2nc(-c3cccnc3)cc(C(=O)NC(C)C)c2c1 | 16.7

###

target: human ether-à-go-go-related gene (hERG) potassium channel (human, UniProt Q12809); experiment: primary screen, population patch clamp on CHO cells stably expressing hERG; higher = less effect of the substance;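 note: peak tail current of the secondary pulse compared with the same well before compound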
Among all 310,000 compounds or so, about 14,000 (4.5%) showed an effect of 50% or more. Effects have a minus sign here. Only a selection was taken, and strong results are over-represented in it overall.
Collected hERG current change (%, negative = inhibition) at 10uM values appear next to each entry.
endpointName: hERG current change (%, negative = inhibition) at 10uM (%)

molecule | reportedResult
COc1ccc(OC)c(CNc2ccc3c(c2)CCC3)c1 | 20.4
CC(NC(=O)C1CCN(S(=O)(=O)c2cc([N+](=O)[O-])ccc2Cl)CC1)c1ccccc1 (stereo not shown) | 11.5
COc1ccc(CN2C(=O)CCC(C(=O)O)C2c2ccccc2)cc1 (stereo not shown) | 25.6
CCOCCCNC(=S)NC1CC2CCC(C1)N2Cc1ccccc1 (stereo not shown) | -23
COc1cccc(NC(=O)c2cn(C)c(=O)c3cc(OC)c(OC)cc23)c1 | 6.54
CC1CCN(S(=O)(=O)c2cc([N+](=O)[O-])ccc2Cl)CC1 | -24
CN(Cc1ccccc1)C(=O)C1CCN(S(C)(=O)=O)CC1 | 16.1
O=S(=O)(N1CCCCC1)N1CCN(c2ccc(F)cc2)CC1 | -35.9
CCC1(CC)C(=O)N(C)C(=O)NC1=Nc1ccccc1 | 15.8
Cc1cccn2c(=O)c3cc(C(=O)NCC4CCCO4)c(=N)n(Cc4ccc(F)cc4)c3nc12 (stereo not shown) | -75.7
